target.of.assay: T1, fHbp m001935 (Neisseria meningitidis; fHbp …, chimera)
T1 chain: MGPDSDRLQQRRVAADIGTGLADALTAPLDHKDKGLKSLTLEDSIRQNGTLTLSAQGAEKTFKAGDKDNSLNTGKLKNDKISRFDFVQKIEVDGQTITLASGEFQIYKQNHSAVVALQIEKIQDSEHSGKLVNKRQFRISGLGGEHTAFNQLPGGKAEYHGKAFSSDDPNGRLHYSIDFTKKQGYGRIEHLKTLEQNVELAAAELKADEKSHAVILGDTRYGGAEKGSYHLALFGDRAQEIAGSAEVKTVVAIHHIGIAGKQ
assay.notes: BLI
study.conditions: both partners purified
Listed binders paired with reported Kd
readout.name: Kd (nM)

1. mAb 4B3 (human) (antibody, V domains shown, also called 4B3-2; source: Expi293, purified (MabSelect SuRe, SEC); copies: 2 + 2) VH: QVQLVQSGGGLVKPGGSLRLSCAASGFPFSSYYMSWIRQAPGKGLEWVSDINNSGNVKEYADFVKGRLTISRDNVKNSMYLHMNSLRVEDTAVYYCARNRGRFDVWGQGTLVTVSA VL: EIVMTQSPGTLSLSPGETATLSCRASQMISSPFLAWYQQRRGQAPRLLIYGASTRATDTPDRFRGSGSGTDFILTISRLEPEDFAVYYCQYYDDSPFTFGQGTKLEIK	2.34
2. chimeric antibody h12C1 (antibody, V domains shown, also called humanized 12C1; source: Expi293, purified (MabSelect SuRe, SEC); copies: 2 + 2) VH: QVQLQESGPELVKPGASVKISCKASGYSFSDYNMSWVKQSNGKSLEWIGIIDPKYGTINYNQKFKGKATLTVDQASSTAYMQLNSLTSEDSAVYYCVRDYYGSSYFDYWGQGTTLTVSS VL: DIVLTQSPSSIYASLGERVTLTCKASQDIHNYLNWFQQKPGKSPKTLIYRANRLVDGVPSRFSGGGSGQDYSLTISSLEFEDIGIYYCLQYDEFPPTFGGGTRLEIK	18.9
3. mAb 1E6 (human) (antibody, V domains shown, source: Expi293, purified (MabSelect SuRe, SEC); copies: 2 + 2) VH: EVQLVQSGAEVKKPGSSVKVSCKASGGTVIDYPITWVRQAPGQGLEWVGGFVPLFRTSNYGQKFQGRVTITADKSTSTASMELNSLTSEDTAIYYCARGDTAMGPFDYWGQGTLVTVSS VL: SYVLTQPPSLSVAPGKTATLTCGGNNIAGKTVHWYQQRPGQAPVLVISYDSDRPSGIPERFSGSNSANTATLTISRVEAGDEADYYCQVWDRNSDHWVFGGGTKLTVL	0.131
4. chimeric antibody hJAR5 (antibody, V domains shown, also called hJAR5-2; humanized JAR5; source: Expi293, purified (MabSelect SuRe, SEC); copies: 2 + 2) VH: QVQMQQPGAELVKPGASVKLSCKASGYTFISYWMHWVKQRPGRGLEWIGRIAPDTGIIYYNEKFKNKATLTVDTPSSTAYMQLNSLTSEDSAVYYCARYLKYDGSTYRFDYWGQGTTLTVSS VL: DIVMTQAAPSVPVTPGESVSISCRSSKSLLHSNGNTYLFWFLQRPGQSPQLLIYRMSNLASGVPDRFSGSGSGTSFTLRISRVEAEDVGVYYCMQHLEYPYTFGGGTKLEIK	0.401
